- TESTED_SYSTEM: T1, human glucose-dependent insulinotropic polypeptide receptor (GIPR), expressed on CHO-K1 cells (human, UniProt P48546 22-466)
- T1 sequence (looked up): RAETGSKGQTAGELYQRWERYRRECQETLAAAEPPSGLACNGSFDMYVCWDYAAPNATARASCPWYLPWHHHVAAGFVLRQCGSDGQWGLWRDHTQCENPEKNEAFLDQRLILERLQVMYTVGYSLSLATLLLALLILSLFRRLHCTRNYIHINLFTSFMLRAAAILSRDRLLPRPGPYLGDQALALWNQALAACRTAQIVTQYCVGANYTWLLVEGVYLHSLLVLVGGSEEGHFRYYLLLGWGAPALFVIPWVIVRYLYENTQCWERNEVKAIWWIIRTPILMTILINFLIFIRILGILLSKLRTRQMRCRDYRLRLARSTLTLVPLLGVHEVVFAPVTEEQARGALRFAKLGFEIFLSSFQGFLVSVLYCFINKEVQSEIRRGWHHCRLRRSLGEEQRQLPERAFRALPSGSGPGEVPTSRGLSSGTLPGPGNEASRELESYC
- METHOD_SUMMARY: cell-based or functional assay
Numbered stars: 1 amine (or outer) side, 2 acyl side, 3 side chain; on linkers, the order of the positions; unused ones are H or OH. Square brackets hold non-standard residues; d marks the D form. Primed or numbered codes have the meaning given here. Side chains are listed from the residue outwards. Ends that are not written are not given here. * marks the point of attachment. C18 = C18 fatty acid (C16-C22 fatty acids conjugated via γGlu/8-amino-3,6-dioxaoctanoic acid spacers); C18″ = C18 fatty acid moiety (of 2OEG-γGlu-C18, K*); γGlu = O=C(O)[C@H](CCC(=O)[*:2])N[*:1]; AEEA = NCCOCCOCC(=O)O; Aib = CC(C)(N)C(=O)O; MAL = maleimide
Entries and their measured Relative % to non-lipidated peptide follow.

Some entries whose results are on file:
# BINDER, Relative % to non-lipidated peptide
measured = [
    ("H[Aib]QGTFTSDYSK([AEEA-AEEA-γGlu-C18″])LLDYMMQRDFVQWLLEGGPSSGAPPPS-NH2 [Peptide No. 5-5D]", "40%"),
    ("H[Aib]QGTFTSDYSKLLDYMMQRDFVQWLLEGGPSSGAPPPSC([MAL-AEEA-AEEA-γGlu-C18])-NH2 [Peptide No. 5-5A]", "3%"),
    ("Y[Aib]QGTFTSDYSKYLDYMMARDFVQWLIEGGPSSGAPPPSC-NH2 [Peptide No. 5-1]", "100%"),
    ("Y[Aib]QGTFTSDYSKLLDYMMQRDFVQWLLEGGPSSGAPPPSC-NH2 [Peptide No. 5-3]", "100%"),
    ("Y[Aib]QGTFTSDYSKYLDYK([AEEA-AEEA-γGlu-C18″])MARDFVQWLIEGGPSSGAPPPS-NH2 [Peptide No. 5-1F]", "14%"),
]

## Task State its Relative % to non-lipidated peptide: Y[Aib]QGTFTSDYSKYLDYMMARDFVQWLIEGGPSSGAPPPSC-NH2 (not fully specified (residue 40)) [Peptide No. 5-1A]
## Result 11%
